# Ki listing for each entry below
Target: UniProt P28335
Sequence (P28335 whole entry): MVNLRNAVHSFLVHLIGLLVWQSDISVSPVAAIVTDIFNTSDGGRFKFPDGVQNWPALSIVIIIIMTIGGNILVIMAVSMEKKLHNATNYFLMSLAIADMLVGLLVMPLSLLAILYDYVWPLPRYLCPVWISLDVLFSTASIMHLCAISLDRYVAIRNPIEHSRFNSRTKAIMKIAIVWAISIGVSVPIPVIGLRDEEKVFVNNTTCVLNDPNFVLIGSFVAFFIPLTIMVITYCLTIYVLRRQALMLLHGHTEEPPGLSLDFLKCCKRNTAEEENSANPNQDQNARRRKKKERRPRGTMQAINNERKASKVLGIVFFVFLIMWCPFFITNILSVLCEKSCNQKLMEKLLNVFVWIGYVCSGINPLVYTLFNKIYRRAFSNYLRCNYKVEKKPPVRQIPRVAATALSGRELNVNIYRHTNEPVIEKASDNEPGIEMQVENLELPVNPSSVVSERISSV
measured quantity: Ki (nM)

molecule=O=C(OCCN1CCCC1)N1c2ccccc2Sc2ccccc21 recorded_value=940
molecule="CC(C(=O)N1c2ccccc2Sc2ccccc21)c1ccccc1 (centres undefined)" recorded_value=390
molecule=CCN(CC)CCCOC(=O)N1c2ccccc2Sc2ccccc21 recorded_value=3100
molecule=O=C(Cc1ccc2ccccc2c1)N1c2ccccc2Sc2ccccc21 recorded_value=2200

These data points were gathered from ChEMBL document CHEMBL2401658.
